tested on: HCT-15 colon; test: NCI tumour cell line growth inhibition, 48 h
Below, each entry is listed with its recorded TGI.
METRIC: TGI

>>> measurement("CCCO/N=[N+](\\[O-])N(CC)CC")
"> 100 µM"
>>> measurement("CC(C)n1c(/C=C/[C@@H](O)C[C@@H](O)CC(=O)O)c(-c2ccc(F)cc2)c2ccccc21")
"> 100 µM"
>>> measurement("CC1(C)C(=O)C(O)=CC2C1=CCC1C2(C)C(=O)CC2(C)C(C(C)(O)C(=O)CC(O)C(C)(C)O)C(O)CC12C (stereo unspecified)")
"> 88.7 µM"
>>> measurement("CCCCCCCCCCCCOCCOCCOCCOCCOCCOCC(=O)NC(Cc1ccccc1)C(=O)Oc1ccc([N+](=O)[O-])cc1 (stereo unspecified)")
"> 100 µM"
>>> measurement("Cc1cccc(NC(=O)c2sc3nc4c(cc3c2N)CCCC4)c1C")
"> 100 µM"
>>> measurement("C=C1CC(COc2ccc3c(C)c(C)c(=O)oc3c2C)(c2ccccc2)OC1=O (stereo unspecified)")
"3.84 µM"
>>> measurement("CC(=O)C1(O)CCC2(O)C3(O)CC=C4CC(O)CCC4(C)C3CC(OC(=O)c3ccc(O)cc3)C12C (stereo unspecified)")
"> 100 µM"
>>> measurement("CC(=O)N(C)c1ccc(Nc2ccnc3ccc4nn(C)nc4c23)cc1")
"64.5 µM"
>>> measurement("CC(C)N(C(=O)C12C3C4C1C1C2C3C41C(O)C(C)(C)C)C(C)C (stereo unspecified)")
"> 50 µM"
>>> measurement("Cc1nnc2n1-c1ccccc1N(Cc1ccccc1)CC2")
"> 100 µM"
>>> measurement("O=CN1CCN(C(=O)c2ccco2)C1=S")
"25.7 µM"
